- Tested on: PXR homodimer (NR concentration 270 nM)
- protocol-details: PBM binding z-score (relative to random genomic background probes); higher = stronger binding; sequences stand for … in GC…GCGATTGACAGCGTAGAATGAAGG
If the reported PBM binding z-score equals or exceeds 0.2, assign TRUE. If not, assign FALSE.

| sequence-entry | discrete-label |
| --- | --- |
| CCTCGGAGGACAATAGGAGGTCAGAGCTGCCAGA | TRUE |
| ACAGACAGGTGAGTGAAGGTAACTCAACTGGACG | FALSE |
| GGAACGAGGGCAAGTTGATAGCTGAGTTTGATGG | TRUE |
| CAAACTAGGTCACAGAGGTGAAAGTCCGTGCGTA | TRUE |
| CGTCCAATGTCAGCAGGTCAGTGAAAGCGACGTG | FALSE |
| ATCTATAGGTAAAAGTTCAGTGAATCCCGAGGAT | TRUE |
| AATACAGGGTCATCGGAGGCCAGAGTACGCACAG | TRUE |
| TCTTGTACATCAAAGGTTAAGAAAGCCGAAGCCT | FALSE |

---

- Tested on: RARg homodimer (NR concentration 270 nM)
- protocol-details: PBM binding z-score (relative to random genomic background probes); higher = stronger binding; sequences stand for … in GC…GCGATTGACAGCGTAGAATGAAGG

| sequence-entry | PBM binding z-score |
| --- | --- |
| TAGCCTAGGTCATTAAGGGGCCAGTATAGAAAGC | 3.99 |
| ATCTCTAGGTAAAGTTCAGTTAAAGATCGATAGA | 2.5 |
| ATCTTTAGGTAAAGATAGTTCAGTGAATGCAAAT | 0.798 |
| CCTAGCAGGCCAATCTGGGTCACTCATGGCTTGA | 1.37 |
| ATACCAAGGTGATCGTGATGTCGTTGATACTAAC | 0.334 |
| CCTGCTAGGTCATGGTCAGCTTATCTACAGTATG | 4.7 |
| TCTTGTAGATCAACAGGAGGTTAGGAAAGATCGA | 0.196 |
| CGAACTAGGTCAGAACAGCACAGTGAAGGATGAT | 3.04 |
| TCGATTAGGTTACCAATGGGGCATTCAGCTTTCT | 0.551 |
| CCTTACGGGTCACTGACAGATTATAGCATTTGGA | 4.43 |
| TCTTGTAGATCAAACAGGTTAAGAAAGCCTGAGT | 0.186 |
| ACTTGCAGGCCAAGTTTGGGTCACTCAAACAAAG | 1.88 |

---

- Tested on: LXRa:RXRa (NR concentration 270 nM, RXRa partner concentration 90 nM)
- protocol-details: PBM binding z-score (relative to random genomic background probes); higher = stronger binding; sequences stand for … in GC…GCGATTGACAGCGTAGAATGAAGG
// values below are reported PBM binding z-score
observation-type: PBM binding z-score

| sequence-entry | observed-value |
| --- | --- |
| ACTAGCAGGCTAAGGGTCACTCAAGATTAGTCCG | 2.99 |
| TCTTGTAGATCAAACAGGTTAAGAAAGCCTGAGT | 0.608 |
| TAGCCTAGGTCATGGGTCAGTATACCACGCGAAC | 4 |
| GCGACTGGGGCAAAGCAGGTTTCCATAAGGTTGG | -0.518 |
| TCTATTTGTTGAAGGGCAACCGACGAGTCCGTTT | 1.22 |
